test system: c-Abl (mouse); assay: phosphorylation enrichment, bacterial display (enrichment ratio); higher = better substrate or ligand; peptides without Tyr show the background;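 note: 11-residue human phosphosite peptides and single-mutation variants displayed on the E. coli surface, counted by deep sequencing, each peptide's frequency after selection divided by its frequency in the unselected input library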;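 note: frequency after pTyr selection over input frequency; kinase dosed for 20-30% of maximal phosphorylation in three min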
TEST READOUT: phosphorylation enrichment

Sample answers from the record:
- SEQUENCE DATA: "EHFSYYGMKAV [SLC15A2_Y61_R57H]"
  SYSTEM: "c-Abl (mouse)"
  phosphorylation enrichment: 0.634
- SEQUENCE DATA: "RLVTRYIFNRE [HLA-DQB1_Y62_Y58L_YF]"
  SYSTEM: "c-Abl (mouse)"
  phosphorylation enrichment: 0.51
- SEQUENCE DATA: "AQINLYQDVML [ZNF806_Y33]"
  SYSTEM: "c-Abl (mouse)"
  phosphorylation enrichment: 0.928

[Q] What value of phosphorylation enrichment has been recorded for this entry: DENWFYTQAAS [RPS19_Y54_R56Q]
[A] 0.62

[Q] What do you have for GTVRDYPDFNP [ANXA3_Y15_S19N] ?
[A] 0.663
